Experimental target: GCD (recombinant gelatinase A catalytic domain)
Test protocol: IC50 versus GCD with thiopeptolide substrate Ac-Pro-Leu-Gly-thioester-Leu-Leu-Gly-OEt
The reader will find reported pIC50 values listed item by item below.
Schema: pIC50 number; meaning minus log10 of the concentration expressed in molar units.

{"Chemical structure": "O=C(O)CC(F)(F)C(=O)c1ccc2oc3ccccc3c2c1", "pIC50": 5.71}

input: Fill in reported pIC50 for this entry: O=C(CC(F)(F)C(=O)O)c1ccc2oc3ccccc3c2c1
output: 4.03
